# assayedSystem: MAP2K1 (human)
# procedureText: radiometric filter-binding kinase assay
# testSettings: compound 0.1 µM
observedProperty: residual activity (%)

>>> val("CCCCCc1ccc(/C=C/[C@H](O)[C@@H](CO)NC)cc1")
97
>>> val("CN(C)C/C=C/C(=O)Nc1cccc(C(=O)Nc2ccc(Nc3nccc(-c4cccnc4)n3)cc2)c1")
98
>>> val("NC1(c2ccc(-c3nc4ccn5c(=O)[nH]nc5c4cc3-c3ccccc3)cc2)CCC1")
83
>>> val("CC1=C(CO)C(=O)O[C@@H]([C@@H](C)[C@H]2CC[C@H]3[C@@H]4C[C@H]5O[C@]56[C@@H](O)C=CC(=O)[C@]6(C)C4CC[C@]23C)C1 (some centres undefined)")
100
>>> val("CCn1c(-c2nonc2N)nc2cncc(CNC3CCNCC3)c21")
85
>>> val("C=CC(=O)N1CCC[C@@H](n2nc(-c3ccc(Oc4ccccc4)cc3)c3c(N)ncnc32)C1")
85
>>> val("NC(=O)c1cc2c(-c3cccc(-c4ccccc4)c3)cnc(N)c2s1")
90

[1] O=C(Nc1ccccc1-c1cn2c(CN3CCNCC3)csc2n1)c1cnc2ccccc2n1
[2] COc1cc(O)c2c(c1)/C=C/C[C@H](O)[C@H](O)C(=O)/C=C\C[C@H](C)OC2=O
Compare 1 and 2 and name the one whose reported residual activity is smaller. Bench note: the answer is the label of the chosen record.
2

* * *

# assayedSystem: BTK (human) (UniProt Q06187)
# Sequence (Q06187 whole entry, looked up): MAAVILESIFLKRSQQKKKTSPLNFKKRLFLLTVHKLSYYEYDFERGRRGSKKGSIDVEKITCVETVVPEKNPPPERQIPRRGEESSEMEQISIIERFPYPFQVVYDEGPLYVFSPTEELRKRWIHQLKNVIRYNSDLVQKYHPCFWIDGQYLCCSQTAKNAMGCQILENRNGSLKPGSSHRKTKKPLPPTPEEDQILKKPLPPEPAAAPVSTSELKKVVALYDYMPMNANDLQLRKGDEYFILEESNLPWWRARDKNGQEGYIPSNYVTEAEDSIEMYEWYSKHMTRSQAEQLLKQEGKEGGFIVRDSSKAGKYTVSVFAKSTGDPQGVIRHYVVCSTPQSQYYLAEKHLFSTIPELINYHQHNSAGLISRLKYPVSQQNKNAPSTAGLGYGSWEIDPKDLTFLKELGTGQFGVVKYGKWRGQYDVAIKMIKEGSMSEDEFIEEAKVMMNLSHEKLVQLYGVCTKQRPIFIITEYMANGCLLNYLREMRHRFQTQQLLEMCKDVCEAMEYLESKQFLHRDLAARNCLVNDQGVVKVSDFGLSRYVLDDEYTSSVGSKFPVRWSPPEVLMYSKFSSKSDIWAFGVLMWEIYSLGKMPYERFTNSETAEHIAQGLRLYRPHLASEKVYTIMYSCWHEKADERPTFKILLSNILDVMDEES
# procedureText: radiometric filter-binding kinase assay
# testSettings: compound 10.0 µM
observedProperty: residual activity (%)

>>> val("O=C(O)c1cc(N=Nc2ccc(S(=O)(=O)Nc3ccccn3)cc2)ccc1O")
74
>>> val("COc1cc2ncn(-c3cc(OCc4ccccc4S(C)(=O)=O)c(C#N)s3)c2cc1OC")
45
>>> val("CCNc1nc(Nc2cc(F)c(C(=O)N3CCOCC3)cc2OC)ncc1C(F)(F)F")
90
>>> val("Cc1ccc(-c2ccc3c(ccc4sc5c(c43)NC[C@@H](C)NC5=O)n2)cn1")
107
>>> val("Nc1cccc2c1CN(C1CCC(=O)NC1=O)C2=O (stereo not given)")
107
>>> val("O=C(NOCC(O)CO)c1ccc(F)c(F)c1Nc1ccc(I)cc1Cl (stereo not given)")
97
>>> val("CN1C(=O)[C@@H](Cc2c[nH]c3ccccc23)NC1=S")
89

[a] FC(F)(F)c1ccc(-c2ccc(Oc3cncc4sc(-c5nn[nH]n5)cc34)cc2)cc1
[b] N#Cc1c(C2CCNCC2)cc(-c2c(O)cccc2OCC2CC2)nc1N
[c] O=c1c(O)c(-c2ccc(O)c(O)c2)oc2cc(O)c(O)c(O)c12
Endpoint returns the given compounds ordered by ascending residual activity. Write the labels in rank order as requested.
c, b, a

* * *

# assayedSystem: PRKACA (human)
# procedureText: radiometric filter-binding kinase assay
# testSettings: compound 0.1 µM
observedProperty: residual activity (%)

>>> val("Cc1cccc(-c2nn(C(=S)Nc3ccccc3)cc2-c2ccnc3ccccc23)n1")
109

[A] CNc1nc(-c2ccc3c(N)n[nH]c3c2)cc(N2C[C@@H](C(=O)NC3CCCCC3)CC[C@H]2C)n1
[B] COc1ccc2c(c1)c1c3c(c4c5ccccc5n(C)c4c1n2CC(O)CN(C)C)C(=O)NC3=O (centres undefined)
For the two items A and B , which reports the higher residual activity value? Answer format: the label of the selected item.
A
